# Type: physicochemical
# Parameters: key: 1 = fibrils present; 0 non-fibrillar structures
# SETUP CONDITIONS: TEM; 1 = fibrils present, 0 = non-fibrillar
Consider the following sequences and their measured Fibril readings.
Lab note: write the figure by itself, no unit.

Guide cases for Fibril, answers given:
Exercise: Item under review: `RPRGLLLGNLR` . Reported Fibril?
Solution: 0

Exercise: Bench note: what Fibril did `KIKIQIII` show?
Solution: 1

Below: the item to evaluate.
Exercise: GET /values?readout=Fibril&item= `KLKLKLQL`
Solution: 1

---

Examples of substances with documented ThT Cat, follow.
# Type: physicochemical
# SETUP CONDITIONS: ThT category; 1 if Rel. ThT >2

Exercise: Item under review: `KIKIKIKIWW` . Reported ThT Cat,?
Solution: 1 (ThT. Cat is 1, if Rel. ThT >2)

Exercise: Find the recorded ThT Cat, belonging to `HHHHKIKIKIKIYYYY` and report it.
Solution: 1 (ThT. Cat is 1, if Rel. ThT >2)

Exercise: Would you mind telling me what ThT Cat, value was observed for `NMWQKVGTPL` ?
Solution: 1 (ThT. Cat is 1, if Rel. ThT >2)

Exercise: # ThT Cat, lookup, item `CKFKQFFNM`
Solution: 1 (ThT. Cat is 1, if Rel. ThT >2)

Exercise: // returns reported ThT Cat, for input `CEIEIQINM`
Solution: 1 (ThT. Cat is 1, if Rel. ThT >2)

Exercise: # query: ThT Cat, of entry `HRRHFRHKITKKK`
Solution: 0 (ThT-inactive (N-Fold <2))

Exercise: // lookup ThT Cat, for `CRFRFQF`
Solution: 1 (ThT. Cat is 1, if Rel. ThT >2)

Exercise: Any idea what ThT Cat, was measured for `ILKNLSRSRKIKIQINMWQ` ?
Solution: 1 (ThT. Cat is 1, if Rel. ThT >2)

Continuing:
Exercise: Recorded ThT Cat, of `KIKIQINM` , please.
Solution: 0 (ThT-inactive (N-Fold <2))

Exercise: Suppose we examine the substance `MKFKFQF` ; what ThT Cat, value has been reported?
Solution: 0 (ThT-inactive (N-Fold <2))

Exercise: Which ThT Cat, reading was recorded for the substance `RGDKIKIQINMC` ?
Solution: 0 (ThT-inactive (N-Fold <2))

Exercise: Item `CSISIQI` has what recorded ThT Cat,?
Solution: 1 (ThT. Cat is 1, if Rel. ThT >2)

Exercise: For the substance `CKIKQIINMWQ` , what ThT Cat, is on record?
Solution: 1 (ThT. Cat is 1, if Rel. ThT >2)
